test.summary: amyloid nucleation score (Sup35N fusion, yeast selection) (log enrichment); library NNK3; higher = more nucleation; inactive = no reads after selection;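 further: zero at mode of non-aggregating sequences after 7 days selection at 30°C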
assay.metric: amyloid nucleation score

>  <substance>
QFMYMFRARRTCGLNNGGQD

>  <amyloid nucleation score>
-0.689

$$$$
>  <substance>
YFYGLQWPCD

>  <amyloid nucleation score>
inactive

$$$$
>  <substance>
SYSVSCTDGWSIVFMFSHIA

>  <amyloid nucleation score>
inactive

$$$$
>  <substance>
YLRHIVFNRQDYMSTRLCKH

>  <amyloid nucleation score>
inactive

$$$$
>  <substance>
HFLHYRPTGNHRLFWIRKDY

>  <amyloid nucleation score>
inactive

$$$$

Exercise: Request the reported amyloid nucleation score associated with `KRFTGSK`
Key: inactive

Exercise: Same lookup for `MDRIFWD` , please.
Key: inactive

Exercise: Same lookup for `DRNSYVMCYPWGVVWCNHKS` , please.
Key: 1.03

Exercise: Same lookup for `IYGGCIFYRMSQCARMDTGE` , please.
Key: inactive

Exercise: Same lookup for `NVECSCDPEKTFIPKSVSLK` , please.
Key: 0.102

Exercise: Same lookup for `LLCYWSLA` , please.
Key: inactive

Exercise: Same lookup for `MCIHSITECRS` , please.
Key: inactive

Exercise: Same lookup for `GYDGRGSHAL` , please.
Key: inactive

Exercise: Same lookup for `FFFLLKMRHKPSASANLNSN` , please.
Key: inactive

Exercise: Same lookup for `LVADSDRMNVTLRFTVSYCS` , please.
Key: inactive

Exercise: Same lookup for `YLSICVMFLVASRVRSISSI` , please.
Key: inactive

Exercise: Same lookup for `RWIFIT` , please.
Key: inactive

Exercise: Same lookup for `RSTSSENYFYWFKS` , please.
Key: inactive

###

test.summary: amyloid nucleation score (Sup35N fusion, yeast selection) (log enrichment); library NNK2; higher = more nucleation; inactive = no reads after selection
Categories are defined by ranges of amyloid nucleation score, namely low interval: < 0.01; middle interval: ≥ 0.01 and < 1; high interval: ≥ 1

>  <substance>
DPVTMLYSF

>  <category.label>
middle interval

$$$$
>  <substance>
GIYNVLS

>  <category.label>
low interval

$$$$
>  <substance>
YLSDNLIAFWIVHNQWMIMA

>  <category.label>
high interval

$$$$
>  <substance>
FHGHQPYFWNVL

>  <category.label>
middle interval

$$$$
>  <substance>
VRLLSFEINSWWLCACCRSV

>  <category.label>
high interval

$$$$

Exercise: Sort `FCIPYGGLIDTA` into one of the categories.
Key: low interval

###

test.summary: amyloid nucleation score (Sup35N fusion, yeast selection) (log enrichment); library NNK1; higher = more nucleation; inactive = no reads after selection
amyloid nucleation score of 0.9 or higher: true. Under 0.9: false.

>  <residue.string>
FTISGLYSFFVSLLGKEYYG

>  <category.label>
false

$$$$

Exercise: Determine whether measured amyloid nucleation score meets or exceeds 0.9 for `HQTEEISKSSFFQCNMVQCW`
Key: true

Exercise: Same lookup for `WVHVCGGHCNWLICSMASNG` , please.
Key: true

Exercise: Same lookup for `SAHITDVLHKMWRNNTTTWY` , please.
Key: true

Exercise: Same lookup for `GFGWLCYCGPYNLGRFSLSV` , please.
Key: false

Exercise: Same lookup for `CMYFFRVTGKINNINSLYCW` , please.
Key: false

Exercise: Same lookup for `YIDSLISLITDSCMNHRDGR` , please.
Key: false

Exercise: Same lookup for `SAGSVADRGCLFSLRRASKC` , please.
Key: false

Source listed as the supplement of paper PMC12042874.
